# method: qHTS drug screen for cell cycle checkpoint inhibitors in PARPi-resistant BRCA-mutant ovarian cancer cell lines. (AID 1963452)
# experimental parameters: PEO1/OlaR viability, CellTiter-Glo luminescence, 96 h; measured here: PEO4 Z-AUC; stronger effect = lower value
This section presents compounds with their documented Z-AUC values.
Answer with a number only.

{"compound": "O=C(Nc1ccc2[nH]nc(-c3ccncc3)c2c1)[C@@H]1CCN(CC(=O)N2CCN(c3ccc(-c4ncccn4)cc3)CC2)C1", "measured": -0.706}

Query: What Z-AUC value was documented for this compound, COc1c(C)cc(NC(=O)c2nn(Cc3ccc(F)cc3)c3c2CN(C(=O)c2ccc[nH]2)C[C@]3(C)C(N)=O)cc1C ?
Reply: -0.568

Query: Z-AUC lookup needed for COc1cc2ncnc(Nc3ccc(O)c(Br)c3)c2cc1OC , thanks.
Reply: -0.318

Query: # input compound: NCC1CCN(c2nccc(-c3ccc4ccccc4c3)n2)CC1 ; wanted: its Z-AUC
Reply: -0.738

Query: Entry under review: COC(=O)Nc1cc(Nc2cc(NC3CC3)c3ncc(C#N)n3n2)c(Cl)c(N2CCN(C)CC2)c1 . Reported Z-AUC?
Reply: -1.22

Query: Which value of Z-AUC has been reported for CC(C)C[C@H](CO)Nc1nc(S[C@@H](C)c2ccccc2)nc2nc(N)sc12 in the records?
Reply: -0.0726
